conditions: in n-hexanol, 303.35 K

{"structureString": "C[C@@H]1CC[C@@]2(OC1)O[C@H]1C[C@H]3[C@@H]4CC=C5C[C@@H](O)CC[C@]5(C)[C@H]4CC[C@]3(C)[C@H]1[C@@H]2C", "solubility (mole fraction)": 0.00875}

----------
details: in n-heptanol, 317.75 K

{"structureString": "C[C@@H]1CC[C@@]2(OC1)O[C@H]1C[C@H]3[C@@H]4CC=C5C[C@@H](O)CC[C@]5(C)[C@H]4CC[C@]3(C)[C@H]1[C@@H]2C", "solubility (mole fraction)": 0.014}

----------
conditions: in n-heptanol, 327.45 K

{"structureString": "C[C@@H]1CC[C@@]2(OC1)O[C@H]1C[C@H]3[C@@H]4CC=C5C[C@@H](O)CC[C@]5(C)[C@H]4CC[C@]3(C)[C@H]1[C@@H]2C", "solubility (mole fraction)": 0.0188}

----------
conditions: in n-heptanol, 324.65 K

{"structureString": "C[C@@H]1CC[C@@]2(OC1)O[C@H]1C[C@H]3[C@@H]4CC=C5C[C@@H](O)CC[C@]5(C)[C@H]4CC[C@]3(C)[C@H]1[C@@H]2C", "solubility (mole fraction)": 0.0171}

----------
settings: in n-hexanol, 308.15 K
assayEndpoint: solubility (mole fraction)

{"structureString": "C[C@@H]1CC[C@@]2(OC1)O[C@H]1C[C@H]3[C@@H]4CC=C5C[C@@H](O)CC[C@]5(C)[C@H]4CC[C@]3(C)[C@H]1[C@@H]2C", "assayValue": 0.00957}

----------
conditions: in n-hexanol, 305.45 K

{"structureString": "C[C@@H]1CC[C@@]2(OC1)O[C@H]1C[C@H]3[C@@H]4CC=C5C[C@@H](O)CC[C@]5(C)[C@H]4CC[C@]3(C)[C@H]1[C@@H]2C", "solubility (mole fraction)": 0.00905}

----------
settings: in n-hexanol, 327.95 K

{"structureString": "C[C@@H]1CC[C@@]2(OC1)O[C@H]1C[C@H]3[C@@H]4CC=C5C[C@@H](O)CC[C@]5(C)[C@H]4CC[C@]3(C)[C@H]1[C@@H]2C", "solubility (mole fraction)": 0.0181}

----------
settings: in n-heptanol, 329.6 K

{"structureString": "C[C@@H]1CC[C@@]2(OC1)O[C@H]1C[C@H]3[C@@H]4CC=C5C[C@@H](O)CC[C@]5(C)[C@H]4CC[C@]3(C)[C@H]1[C@@H]2C", "solubility (mole fraction)": 0.0202}

----------
settings: in n-hexanol, 319.26 K

{"structureString": "C[C@@H]1CC[C@@]2(OC1)O[C@H]1C[C@H]3[C@@H]4CC=C5C[C@@H](O)CC[C@]5(C)[C@H]4CC[C@]3(C)[C@H]1[C@@H]2C", "solubility (mole fraction)": 0.0139}

----------
details: in n-hexanol, 315.8 K
assayEndpoint: solubility (mole fraction)

{"structureString": "C[C@@H]1CC[C@@]2(OC1)O[C@H]1C[C@H]3[C@@H]4CC=C5C[C@@H](O)CC[C@]5(C)[C@H]4CC[C@]3(C)[C@H]1[C@@H]2C", "assayEndpoint": "solubility (mole fraction)", "assayValue": 0.0126}

----------
settings: in n-heptanol, 309.9 K
assayEndpoint: solubility (mole fraction)

{"structureString": "C[C@@H]1CC[C@@]2(OC1)O[C@H]1C[C@H]3[C@@H]4CC=C5C[C@@H](O)CC[C@]5(C)[C@H]4CC[C@]3(C)[C@H]1[C@@H]2C", "assayValue": 0.0106}

----------
conditions: in n-heptanol, 323.22 K

{"structureString": "C[C@@H]1CC[C@@]2(OC1)O[C@H]1C[C@H]3[C@@H]4CC=C5C[C@@H](O)CC[C@]5(C)[C@H]4CC[C@]3(C)[C@H]1[C@@H]2C", "solubility (mole fraction)": 0.0163}

----------
details: in n-heptanol, 314.11 K

{"structureString": "C[C@@H]1CC[C@@]2(OC1)O[C@H]1C[C@H]3[C@@H]4CC=C5C[C@@H](O)CC[C@]5(C)[C@H]4CC[C@]3(C)[C@H]1[C@@H]2C", "solubility (mole fraction)": 0.0126}

----------
conditions: in n-heptanol, 307.65 K
assayEndpoint: solubility (mole fraction)

{"structureString": "C[C@@H]1CC[C@@]2(OC1)O[C@H]1C[C@H]3[C@@H]4CC=C5C[C@@H](O)CC[C@]5(C)[C@H]4CC[C@]3(C)[C@H]1[C@@H]2C", "assayEndpoint": "solubility (mole fraction)", "assayValue": 0.0101}

----------
details: in n-hexanol, 321.95 K

{"structureString": "C[C@@H]1CC[C@@]2(OC1)O[C@H]1C[C@H]3[C@@H]4CC=C5C[C@@H](O)CC[C@]5(C)[C@H]4CC[C@]3(C)[C@H]1[C@@H]2C", "solubility (mole fraction)": 0.0154}

----------
conditions: in n-hexanol, 329.6 K

{"structureString": "C[C@@H]1CC[C@@]2(OC1)O[C@H]1C[C@H]3[C@@H]4CC=C5C[C@@H](O)CC[C@]5(C)[C@H]4CC[C@]3(C)[C@H]1[C@@H]2C", "solubility (mole fraction)": 0.0188}

----------
conditions: in n-hexanol, 300.15 K
assayEndpoint: solubility (mole fraction)

{"structureString": "C[C@@H]1CC[C@@]2(OC1)O[C@H]1C[C@H]3[C@@H]4CC=C5C[C@@H](O)CC[C@]5(C)[C@H]4CC[C@]3(C)[C@H]1[C@@H]2C", "assayValue": 0.00806}

----------
settings: in n-heptanol, 320.05 K

{"structureString": "C[C@@H]1CC[C@@]2(OC1)O[C@H]1C[C@H]3[C@@H]4CC=C5C[C@@H](O)CC[C@]5(C)[C@H]4CC[C@]3(C)[C@H]1[C@@H]2C", "solubility (mole fraction)": 0.0147}

----------
settings: in n-hexanol, 312.12 K
assayEndpoint: solubility (mole fraction)

{"structureString": "C[C@@H]1CC[C@@]2(OC1)O[C@H]1C[C@H]3[C@@H]4CC=C5C[C@@H](O)CC[C@]5(C)[C@H]4CC[C@]3(C)[C@H]1[C@@H]2C", "assayValue": 0.0107}

----------
settings: in n-heptanol, 321.07 K

{"structureString": "C[C@@H]1CC[C@@]2(OC1)O[C@H]1C[C@H]3[C@@H]4CC=C5C[C@@H](O)CC[C@]5(C)[C@H]4CC[C@]3(C)[C@H]1[C@@H]2C", "solubility (mole fraction)": 0.0155}

----------
conditions: in n-hexanol, 313.79 K
assayEndpoint: solubility (mole fraction)

{"structureString": "C[C@@H]1CC[C@@]2(OC1)O[C@H]1C[C@H]3[C@@H]4CC=C5C[C@@H](O)CC[C@]5(C)[C@H]4CC[C@]3(C)[C@H]1[C@@H]2C", "assayValue": 0.0119}

----------
conditions: in n-hexanol, 326.2 K

{"structureString": "C[C@@H]1CC[C@@]2(OC1)O[C@H]1C[C@H]3[C@@H]4CC=C5C[C@@H](O)CC[C@]5(C)[C@H]4CC[C@]3(C)[C@H]1[C@@H]2C", "solubility (mole fraction)": 0.0174}

----------
conditions: in n-heptanol, 315.8 K

{"structureString": "C[C@@H]1CC[C@@]2(OC1)O[C@H]1C[C@H]3[C@@H]4CC=C5C[C@@H](O)CC[C@]5(C)[C@H]4CC[C@]3(C)[C@H]1[C@@H]2C", "solubility (mole fraction)": 0.0133}
